# Test system: MALME-3M melanoma
# METHOD_DESCRIPTION: NCI tumour cell line growth inhibition, 48 h
TGI overview

Observe how each entry below is paired with its result.
COMPOUND	TGI
COc1ccc(NC(=O)CC/C(CC(=O)c2ccco2)=N/NC(N)=S)cc1	> 100 µM
O=C(O)COc1ccc(C(=O)/C(SS/C(C(=O)c2ccc(OCC(=O)O)c(Cl)c2Cl)=C2\C=C(c3ccc(Cl)cc3)SS2)=C2/C=C(c3ccc(Cl)cc3)SS2)c(Cl)c1Cl	> 100 µM
CC(C)(C)[Si](C)(C)OC1[C@@H](O[Si](C)(C)C(C)(C)C)[C@@H](CNC(=O)NC(=O)CF)O[C@H]1n1cnc2c(NC(=O)Nc3ccccc3)ncnc21 (stereo partly specified)	> 50 µM
O=C(OC1CCC2OOC1O2)c1ccc([N+](=O)[O-])cc1 (stereo unspecified)	> 100 µM
c1ccc(C(NC2=NCCO2)c2ccccc2)cc1	> 10 µM

Now examine the next entry.
Field request: TGI | item: `O=c1c2ccccc2nc2n1-c1ccccc1SC2` > 100 µM

====

TGI overview
# Test system: HS 578T breast
# METHOD_DESCRIPTION: NCI tumour cell line growth inhibition, 48 h

> print(dat)
                                   compound  measured.quantity  observed
1  CCN1C(=O)N(CC)C2C1NN=c1s/c(=C\c3ccco3)c(=O)n12 (stereo not given)                TGI  > 100 µM
2  O=C(O)c1cc(=O)c2c(OCC(O)COc3cccc4oc(C(=O)O)cc(=O)c34)cccc2o1                TGI  > 100 µM
3  CN(C)CCCNC(=O)CCNC(=O)c1cc(NC(=O)c2cc(NC(=O)c3cc(NC(=O)c4nccn4C)cn3C)cn2C)cn1C                TGI  > 100 µM
4  COc1cc(/C=N\c2nc(-c3ccc(NS(=O)(=O)c4ccc(Cl)c(OC)c4)cc3)cs2)ccc1O                TGI  > 100 µM
5  Nc1ccc(Oc2ccc(C3(c4ccc(Oc5ccc(N)cc5)cc4)C4CC5CC(C4)CC3C5)cc2)cc1                TGI  > 100 µM

Now examine the next entry.
Field request: TGI | item: `O=C(/C=C/c1ccc(C(F)(F)F)cc1)c1c([O-])on[n+]1-c1ccccc1` > 32.3 µM

====

# Tested on: HCT-116 colon
# METHOD_DESCRIPTION: NCI tumour cell line growth inhibition, 48 h
MEASURED_QUANTITY: TGI

> print(dat)
                            smiles.notation  measured.quantity   observed
1  CCNC(=O)Nc1ccc(Oc2ccnc3ccc4c(ccn4C)c23)cc1                TGI   > 100 µM
2          COc1ccc2c(c1)oc(=O)c1cc(OC)ccc12                TGI   > 100 µM
3  Cn1ncc2c(Nc3cccc(Cl)c3)nc(Nc3cccc(Cl)c3)nc21                TGI  > 58.3 µM
4  C[C@]12CC[C@@H]3c4cc(O)c(O)cc4CC[C@H]3[C@@H]1CC[C@@H]2O                TGI  > 51.4 µM

Field request: TGI | item: `O=C(Nc1ccc(-n2cc(-c3ccncc3)c(-c3ccc(O)c(Cl)c3)n2)cc1)Nc1ccc(Cl)c(C(F)(F)F)c1` 10.8 µM

// provenance: PubChem BioAssay (NCI)
